# assay overview: NCI Yeast Anticancer Drug Screen. Data for the mgt1 strain (AID 153)
# particulars: S. cerevisiae mgt1 mutant growth inhibition; at 100.0 µM; hits give high values
The panel holds about 79,000 compounds, 15% with a hit somewhere; the sample as a whole holds those more often. Calls of active or inactive are those of the source. Rule as the data show it: active = growth inhibition above about 70%; inactive = the rest.
quantity measured: growth inhibition

{"compound": "CC1(C2CC2)C(C#N)(C#N)C1(C#N)C#N", "quantity measured": "growth inhibition", "measured result": "63% (inactive)"}
{"compound": "O=[N+]([O-])c1cccc2nc3ccccc3c(NCCCN3CCCCC3)c12", "quantity measured": "growth inhibition", "measured result": "99% (active)"}
{"compound": "CCC[CH2][Ge]([CH2]CCC)([CH2]CCC)[O]C(=O)C(O)c1ccccc1 (stereo unspecified)", "quantity measured": "growth inhibition", "measured result": "99% (active)"}
{"compound": "Cc1ccc(S(=O)(=O)Nc2cccc3cccnc23)cc1", "quantity measured": "growth inhibition", "measured result": "79% (active)"}
{"compound": "COC(=O)C1CCCCC1C(=O)Nc1ccccc1 (stereo unspecified)", "quantity measured": "growth inhibition", "measured result": "-32% (inactive)"}
{"compound": "CCCCCCCCSC1=C(Cl)C(=O)C(OC)=C(OC)C1=O", "quantity measured": "growth inhibition", "measured result": "85% (active)"}
{"compound": "Cc1ccc(NC(=O)CCC(=O)C(C)C(=O)c2ccccc2)c(C)c1 (stereo unspecified)", "quantity measured": "growth inhibition", "measured result": "-5% (inactive)"}
{"compound": "CCN(CC)CCCNc1ccc([N+](=O)[O-])c2nc3ccc(OC)cc3c(NCCCN(CC)CC)c12", "quantity measured": "growth inhibition", "measured result": "1% (inactive)"}
{"compound": "CC1=NN(C(=O)CC(=O)NC(=O)/C=C\\c2ccccc2)C(=O)C1N=Nc1ccc([N+](=O)[O-])cc1 (stereo unspecified)", "quantity measured": "growth inhibition", "measured result": "55% (inactive)"}
{"compound": "CC(C)OC(=O)NNc1cccc(Cl)c1", "quantity measured": "growth inhibition", "measured result": "99% (active)"}
{"compound": "COc1ccc2nc3cccc([N+](=O)[O-])c3c(NCCNCCN(C)C)c2c1", "quantity measured": "growth inhibition", "measured result": "5% (inactive)"}

----------
# assay overview: NCI Yeast Anticancer Drug Screen. Data for the mgt1 strain (AID 153)
# particulars: S. cerevisiae mgt1 mutant growth inhibition; at 33.0 µM; hits give high values
Compounds without any hit were thinned out: in the full panel of roughly 79,000, 15% have a hit.
Outcome: rule met for growth inhibition of at least 30%; rule not met for anything lower.

{"compound": "CC(=O)O/N=C1C=C/C(=C(/C#N)c2ccccc2)C=C/1C", "group label": "rule met"}
{"compound": "Cc1cccc(C)c1NC(=O)CCC(=O)C(C)C(=O)c1ccc(O)cc1 (stereo not drawn)", "group label": "rule not met"}
{"compound": "CC(C)NCCCNc1c2ccccc2nc2cccc([N+](=O)[O-])c12", "group label": "rule met"}
{"compound": "O=[N+]([O-])c1cn[n+]([O-])c2ccccc12", "group label": "rule met"}
{"compound": "C=C(C(=O)OC)N1C(=O)CC(C)C1=O (stereo not drawn)", "group label": "rule not met"}
{"compound": "O=[N+]([O-])c1cccc2nc3ccccc3c(NCCCN3CCCCC3)c12", "group label": "rule met"}
{"compound": "COc1ccc2cc3c4cc5c(cc4cc[n+]3cc2c1OC)OCO5", "group label": "rule met"}
{"compound": "COc1cc(C2C3=C(COC3=O)Oc3cc4c(cc32)OCO4)cc(OC)c1O (stereo not drawn)", "group label": "rule not met"}
